- System: Escherichia coli
- assay.summary: Antimicrobial activity against acrAB, tolC-deficient Escherichia coli str. K-12 substr. MG1655 measured after overnight incubation by serial dilution method in presence of erythromycin in iron depleted medium
- Type: functional
log10 MIC listing for selected compounds.
# log10 transformed; quantity=MIC; unit=µg/mL

Some compounds with recorded log10 MIC:
>  <structure.smiles.string>
O=S(=O)(NCCOc1ccc2sc(CNc3nncc(-c4c(Cl)cccc4Cl)n3)nc2c1)c1ccc(O)c(O)c1

>  <log10 MIC>
0.30

$$$$
>  <structure.smiles.string>
O=C(COc1ccc2sc(CNc3nncc(-c4c(Cl)cccc4Cl)n3)nc2c1)OCc1cc(=O)c(O)cn1O

>  <log10 MIC>
1.51

$$$$
>  <structure.smiles.string>
Cn1nc(O)c(=O)nc1SCCOc1ccc2sc(CNc3nncc(-c4c(Cl)cccc4Cl)n3)nc2c1

>  <log10 MIC>
0.00

$$$$
>  <structure.smiles.string>
CS(=O)(=O)NC(=O)COc1ccc2sc(CNc3nncc(-c4c(Cl)cccc4Cl)n3)nc2c1

>  <log10 MIC>
1.20

$$$$
>  <structure.smiles.string>
O=C(NCCOc1ccc2sc(CNc3nncc(-c4c(Cl)cccc4Cl)n3)nc2c1)c1cc(=O)c(O)co1

>  <log10 MIC>
0.30

$$$$

Query log10 MIC on Escherichia coli for O=C(COc1ccc2sc(CNc3nncc(-c4c(Cl)cccc4Cl)n3)nc2c1)NO
0.00

Further, for CCN1CCN(C(=O)NCCOc2ccc3sc(CNc4nncc(-c5c(C)cccc5O)n4)nc3c2)C(=O)C1=O ?
0.90

# credit: ChEMBL document CHEMBL2321728
